- PROTOCOL: chemical genetic growth profiling, strain panel (AID 1159580);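 also: tested at 20 µM; growth read once vehicle control cultures reached saturation at 30 °C; 1 = growth at the plate median or of vehicle wells; lower values mean less growth of the strain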
- SETUP_CONDITIONS: S. cerevisiae deletion strains, growth OD, locus YMR263W, strain SAP30
The campaign covered roughly 5,500 compounds. About 2,000 (36%) were called active. Another 18% or so got no clear call; they are omitted. Rule as the data show it: active = normalized growth mostly below about 0.91 (no sharp cut-off); inconclusive = no clear call, values can overlap the other calls; inactive = mostly above about 0.92. The list shows a part of the results.
Please reply with one of these outcomes: 1 = active, -1 = inactive

Asked: Status in this test for COc1cc(Cc2cnc(N)nc2N)cc(OC)c1OC ?
Given back: -1

Asked: Status in this test for FC(F)(F)c1cc(-c2ccco2)nc2cc(-c3ccco3)nn12 ?
Given back: 1

Asked: Status in this test for Cc1ccc(S(=O)(=O)N2CCCCCC2)cc1 ?
Given back: -1

Asked: Status in this test for Cc1cc(C(F)(F)F)n2nc(-c3ccc(C(C)(C)C)cc3)cc2n1 ?
Given back: -1

Asked: Status in this test for Cc1cc(O)c2c(c1)C(=O)c1cccc(O)c1C2=O ?
Given back: -1

Asked: Status in this test for O=C(O)c1cccc([N+](=O)[O-])c1C(=O)Nc1ccc(F)cc1 ?
Given back: -1

Asked: Status in this test for NS(=O)(=O)c1cc2c(cc1Cl)NCNS2(=O)=O ?
Given back: -1

* * *

- PROTOCOL: chemical genetic growth profiling, strain panel (AID 1159580);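 also: tested at 20 µM; growth read once vehicle control cultures reached saturation at 30 °C; 1 = growth at the plate median or of vehicle wells; lower values mean less growth of the strain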
- SETUP_CONDITIONS: S. cerevisiae deletion strains, growth OD, locus YKL101W, strain HSL1, hits give low values
The whole screen tested about 5,500 compounds, of which about 2,000 (36%) were called active. Another 18% or so got no clear call; they are omitted. This is one part of the list.
Could you please report measured normalized growth for the items listed next?
Keep the answer to the number alone.

Asked: What value of normalized growth has been reported for the following compound? O=[N+]([O-])c1ccc(NCc2ccc(Cl)c(Cl)c2)nc1
Given back: 0.875

Asked: What value of normalized growth has been reported for the following compound? O=C(OCCNc1ccc([N+](=O)[O-])cn1)c1ccc([N+](=O)[O-])o1
Given back: 0.737

Asked: What value of normalized growth has been reported for the following compound? COc1cc(C2CC(=S)Nc3ccccc3S2)cc(OC)c1OC (stereo unspecified)
Given back: 0.951

Asked: What value of normalized growth has been reported for the following compound? O=S(=O)(Nc1c(F)cccc1F)c1ccc(Cl)c(Cl)c1
Given back: 0.96

Asked: What value of normalized growth has been reported for the following compound? Cc1cc2nc3c(Cl)c(O)c4ccccc4c3nc2cc1C
Given back: 0.829

Asked: What value of normalized growth has been reported for the following compound? CC(C)Sc1c(Cl)cccc1NC(=O)Nc1cccc(C(F)(F)F)c1
Given back: 0.937

Asked: What value of normalized growth has been reported for the following compound? O=[N+]([O-])c1ccc(Sc2ccccc2)c([N+](=O)[O-])c1
Given back: 0.662

Asked: What value of normalized growth has been reported for the following compound? O=C(Nc1ccccc1Sc1ccc(C(F)(F)F)cc1[N+](=O)[O-])C(Cl)Cl
Given back: 0.946

Asked: What value of normalized growth has been reported for the following compound? O=C(Nc1ccc(F)cc1)c1cc(Br)ccc1O
Given back: 0.817

Asked: What value of normalized growth has been reported for the following compound? CCOC(=O)c1cnc(-c2ccccn2)[nH]c1=O
Given back: 0.871

Asked: What value of normalized growth has been reported for the following compound? CC(C)c1cccc(C(C)C)c1OC(=O)NC(=O)c1c(Cl)cccc1Cl
Given back: 0.956

Asked: What value of normalized growth has been reported for the following compound? C=CCC1C(=O)N(S(=O)(=O)c2ccc(Cl)cc2)N=C1CCC (stereo unspecified)
Given back: 0.942

Asked: What value of normalized growth has been reported for the following compound? CCOC(=O)c1ccc(N=Cc2cc(Cl)cc(Cl)c2O)cc1
Given back: 0.323

Asked: What value of normalized growth has been reported for the following compound? O=[N+]([O-])c1cc(C(F)(F)F)ccc1Sc1n[nH]c(-c2cc(Cl)cc(Cl)c2)n1
Given back: 0.201

Asked: What value of normalized growth has been reported for the following compound? Cc1cc(N=Cc2cc(Cl)cc(Cl)c2O)no1
Given back: 0.5

Asked: What value of normalized growth has been reported for the following compound? O=C(Nc1cc(Cl)cc(Cl)c1)c1cc(Br)ccc1O
Given back: 0.853

The reported measurements were obtained from PubChem BioAssay AID1159580.
